phenotypically active listing for selected molecules.
- Tested on: HepG2-ACTB-RAB5A
- assay_procedure: phenotypically active (imaging signature differs from DMSO and reproducible) at any of 0.3-9 uM (binary (1 = active, 0 = inactive)); higher = active
- stated_conditions: treatment time: 24 h
Counter-ions that a name gives are not always drawn.
endpoint_name: phenotypically active

[[record]]
molecule = "O=C(/C=C/c1ccc2ccccc2n1)c1ccncc1"
assay_target = "HepG2-ACTB-RAB5A"
observed = 1

[[record]]
molecule = "Nc1nccc2c1ncn2[C@@H]1C=C(CO)[C@@H](O)[C@H]1O [3-Deazaneplanocin A hydrochloride]"
assay_target = "HepG2-ACTB-RAB5A"
observed = 1

[[record]]
molecule = "COc1c2c(cc3oc(CO)cc(=O)c13)O[C@@H](C(C)(C)O)C2 [Cimifugin]"
assay_target = "HepG2-ACTB-RAB5A"
observed = 0

[[record]]
molecule = "O=C(/C=C/c1ccc(OCc2ccccc2)cc1)c1c(O)cc(OCc2ccccc2)cc1OCc1ccccc1 [4,2,4'-Tribenzyloxy-6'-hydroxychalcone]"
assay_target = "HepG2-ACTB-RAB5A"
observed = 0

[[record]]
molecule = "c1ccc2c(c1)CCCC2C1=NCCN1 (configuration not stated) [tetrahydrozoline]"
assay_target = "HepG2-ACTB-RAB5A"
observed = 0

[[record]]
molecule = "Nc1ncnc2c1nc(Cl)n2C1O[C@H](CO)[C@@H](O)[C@H]1O (some centres not stated) [8-Chloroadenosine]"
assay_target = "HepG2-ACTB-RAB5A"
observed = 1

[[record]]
molecule = "NC(=O)[C@@H](CCC(F)(F)F)N(Cc1ccc(-c2ncon2)cc1F)S(=O)(=O)c1ccc(Cl)cc1 [avagacestat]"
assay_target = "HepG2-ACTB-RAB5A"
observed = 1

[[record]]
molecule = "CCCNCC(O)COc1ccccc1C(=O)CCc1ccccc1 (configuration not stated) [propafenone]"
assay_target = "HepG2-ACTB-RAB5A"
observed = 1

[[record]]
molecule = "Cc1nc2c(O)cccc2c(=O)[nH]1"
assay_target = "HepG2-ACTB-RAB5A"
observed = 0

[[record]]
molecule = "CC(=O)Nc1ccc(C(=O)Nc2ccccc2N)cc1"
assay_target = "HepG2-ACTB-RAB5A"
observed = 1

[[record]]
molecule = "CNC(=O)Nc1ccc(-c2nc(N3CC4CCC(C3)O4)c3cnn(C4CCC5(CC4)OCCO5)c3n2)cc1"
assay_target = "HepG2-ACTB-RAB5A"
observed = 1

[[record]]
molecule = "CCCC(=O)O [Sodium butyrate]"
assay_target = "HepG2-ACTB-RAB5A"
observed = 0

[[record]]
molecule = "Cc1cn(CCN2CCN(c3ccccc3-c3cc(C#N)cc(C(=O)NCCCN4CCCC4)c3)CC2)c2ccccc12"
assay_target = "HepG2-ACTB-RAB5A"
observed = 1

[[record]]
molecule = "COc1ccc(C[C@H](C)NC[C@@H](O)c2ccc(O)c(NC=O)c2)cc1 [formoterol]"
assay_target = "HepG2-ACTB-RAB5A"
observed = 0

[[record]]
molecule = "O=c1cc(-c2ccc(O)cc2)oc2cc(O)cc(O)c12 [Apigenin]"
assay_target = "HepG2-ACTB-RAB5A"
observed = 0

[[record]]
molecule = "OC[C@H]1NC[C@H](O)[C@@H](O)[C@@H]1O [1-Deoxynojirimycin]"
assay_target = "HepG2-ACTB-RAB5A"
observed = 0

[[record]]
molecule = "COc1ccccc1S(=O)(=O)Nc1ccc2c(c1)CN(C)C(=O)N2"
assay_target = "HepG2-ACTB-RAB5A"
observed = 1

[[record]]
molecule = "Cc1ccccc1C(OCCN(C)C)c1ccccc1 (configuration not stated) [orphenadrine]"
assay_target = "HepG2-ACTB-RAB5A"
observed = 0

[[record]]
molecule = "Cc1cc(C)cc(C(=O)NOCCCCCC(=O)NO)c1"
assay_target = "HepG2-ACTB-RAB5A"
observed = 1

[[record]]
molecule = "Brc1c(Br)c(Br)c2[nH]nnc2c1Br"
assay_target = "HepG2-ACTB-RAB5A"
observed = 0

[[record]]
molecule = "CCc1cc2c(=O)c(-c3nc4ccccc4s3)coc2c(CN2CCCCC2)c1O"
assay_target = "HepG2-ACTB-RAB5A"
observed = 0

[[record]]
molecule = "CCCN[C@H]1CCc2nc(N)sc2C1 [pramipexole]"
assay_target = "HepG2-ACTB-RAB5A"
observed = 0

[[record]]
molecule = "OCCn1cc(-c2cnc3nnn(Cc4ccc5ncccc5c4)c3n2)cn1"
assay_target = "HepG2-ACTB-RAB5A"
observed = 0

[[record]]
molecule = "Cc1occc(=O)c1O [3-hydroxy-2-methyl-4-pyrone]"
assay_target = "HepG2-ACTB-RAB5A"
observed = 0

[[record]]
molecule = "Oc1cc(O)cc(/C=C/c2ccc(O)c(O)c2)c1 [Piceatannol]"
assay_target = "HepG2-ACTB-RAB5A"
observed = 0

[[record]]
molecule = "S=C(S)N1CCCC1 [Pyrrolidinedithiocarbamate ammonium]"
assay_target = "HepG2-ACTB-RAB5A"
observed = 1

[[record]]
molecule = "O=c1oc2c(O)c(O)cc3c(=O)oc4c(O)c(O)cc1c4c23 [Ellagic acid]"
assay_target = "HepG2-ACTB-RAB5A"
observed = 0

[[record]]
molecule = "NS(=O)(=O)c1cc2c(cc1Cl)N=C(CSCc1ccccc1)NS2(=O)=O [benzthiazide]"
assay_target = "HepG2-ACTB-RAB5A"
observed = 0

[[record]]
molecule = "CCC(=O)N1CCN(c2ccc(-n3c(=O)ccc4cnc5ccc(-c6cnc7ccccc7c6)cc5c43)cc2C(F)(F)F)CC1 [Torin 1]"
assay_target = "HepG2-ACTB-RAB5A"
observed = 1

[[record]]
molecule = "COc1cc2c(cc1-c1c(C)noc1C)ncc1[nH]c(=O)n([C@H](C)c3ccccn3)c12 [I-BET 151 dihydrochloride]"
assay_target = "HepG2-ACTB-RAB5A"
observed = 1

[[record]]
molecule = "COc1ccc(Cl)cc1C(=O)NCCc1ccc(S(=O)(=O)NC(=O)NC2CCCCC2)cc1 [glyburide]"
assay_target = "HepG2-ACTB-RAB5A"
observed = 0

[[record]]
molecule = "C[C@H]1O[C@H](O[C@H]2[C@H](O)[C@@H](O)[C@@H](O[C@H]3[C@H](O)[C@@H](O)[C@H](O)O[C@@H]3CO)O[C@@H]2CO)[C@H](O)[C@@H](O)[C@@H]1N[C@H]1C=C(CO)[C@@H](O)[C@H](O)[C@H]1O [Acarbose]"
assay_target = "HepG2-ACTB-RAB5A"
observed = 0

[[record]]
molecule = "Cc1c[nH]c2ncnc(-c3ccc(NC(=O)N(CCO)c4ccccc4)cc3)c12"
assay_target = "HepG2-ACTB-RAB5A"
observed = 0

[[record]]
molecule = "Nc1ccc(-c2ccc3ncc4ccc(=O)n(-c5cccc(C(F)(F)F)c5)c4c3c2)cn1 [Torin 2]"
assay_target = "HepG2-ACTB-RAB5A"
observed = 1

[[record]]
molecule = "N#Cc1c(C2CCNCC2)cc(-c2c(O)cccc2OCC2CC2)nc1N"
assay_target = "HepG2-ACTB-RAB5A"
observed = 1

[[record]]
molecule = "CC[N+](CC)(CC)CCC(O)(c1ccccc1)C1CCCCC1 (configuration not stated) [tridihexethyl]"
assay_target = "HepG2-ACTB-RAB5A"
observed = 0

[[record]]
molecule = "O=C(O)CCCC[C@@H]1SC[C@@H]2NC(=O)N[C@@H]21 [Biotin]"
assay_target = "HepG2-ACTB-RAB5A"
observed = 0

